- TARGET OR SYSTEM: T1, ZFP SBS#1020 (synthetic)
- T1 chain: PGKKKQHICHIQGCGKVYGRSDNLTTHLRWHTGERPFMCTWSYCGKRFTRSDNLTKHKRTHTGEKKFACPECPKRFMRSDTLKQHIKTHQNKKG
- PROCEDURE DETAILS: EMSA
- COND: tags: MBP fusion
TEST READOUT: Kd (nM)

> print(dat)
                                     binder  quantity.unit  meas.value
1  ACGTAGTAG (dsDNA) DNA 1: ACGTAGTAG DNA 2: CTACTACGT             nM        0.69
